experimental-target: T1, T4 DNA ligase (UniProt P00970 1-487)
T1 sequence: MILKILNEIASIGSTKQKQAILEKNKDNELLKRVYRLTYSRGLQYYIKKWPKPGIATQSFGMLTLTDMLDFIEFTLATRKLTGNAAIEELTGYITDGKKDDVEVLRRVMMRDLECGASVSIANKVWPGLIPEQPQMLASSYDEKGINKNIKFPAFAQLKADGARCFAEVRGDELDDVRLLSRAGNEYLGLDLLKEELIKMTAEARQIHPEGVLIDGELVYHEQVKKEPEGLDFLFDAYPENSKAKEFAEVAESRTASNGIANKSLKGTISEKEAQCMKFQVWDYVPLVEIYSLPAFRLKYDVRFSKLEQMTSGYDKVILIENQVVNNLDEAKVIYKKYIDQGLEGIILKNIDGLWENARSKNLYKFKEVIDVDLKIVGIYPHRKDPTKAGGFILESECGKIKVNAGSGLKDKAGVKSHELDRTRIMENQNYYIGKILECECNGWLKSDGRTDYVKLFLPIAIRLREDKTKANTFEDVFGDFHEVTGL
test-protocol: competition (nick-ligation inhibition); Ki x N sites; per binding site, N=34, assumed 24 bp footprint; derived from the Ki; EMSA: 50 mM Tris pH 7.5, 5 mM DTT, 5 mM Mg2+, 1 mM sodium pyrophosphate, 5% glycerol, room temperature (22 C), 20 min; ligation competition: 50 mM Tris-HCl pH 7.5, 1 mM ATP, 10 mM MgCl2, 10 mM DTT, 16 C
cond: protein: commercial; blunt, no nick
recorded-metric: pKd
Give bare numbers, as −log10 of the molar value.

Exercise: What measured pKd goes with I-40-dsDNA (dsDNA) DNA 1: CACATATGAGAAGGTATTTGCCCGATAATCAATACTCCAG DNA 2: CTGGAGTATTGATTATCGGGCAAATACCTTCTCATATGTG ?
Solution: 5.15
